Where do the numbers come from? From PubChem BioAssay (NCI).

Test system: HCC-2998 colon
ASSAY_REMARKS: NCI-60 one-dose screen, 48 h
EXPERIMENTAL_PARAMETERS: 10 µM unless noted
The panel holds about 83,000 compounds, 20% with a hit somewhere; the sample as a whole holds those more often. Active and inactive are the calls of the source. How the source made its calls: active means growth percent below 10; inactive means the rest.
Hi there, use one of these labels in your reply, thanks! Yes = active, No = inactive

# lookup: test call for Cc1ccc(CN2CCC(C(=O)Nc3ccc(-c4cc5ccccc5[nH]4)cc3)CC2)o1
No

What did this assay record as the result for COC(=O)/C(CCC=C(C)C)=C1\[C@@H](OC(C)=O)C[C@@]2(C)[C@H]1CC(=O)[C@H]1[C@@]3(C)CC[C@H](NCc4ccccc4)[C@@H](C)[C@@H]3CC[C@@]12C ?
No

Can you look up the reported call for COc1ccc(/C=C2\SC(=Nc3ccccc3)NC2=O)cc1 for me?
Yes

Short answer needed: outcome of this test for NC1C(N)C(N)C1N (stereo not given) ?
No

Dear all, I need the recorded test outcome for COc1ccc(-c2c(-c3ccc(OC)c(O)c3)cnc3ncnn23)cc1 , thank you.
No
